- MEASUREMENT DESCRIPTION: PAMPA (parallel artificial membrane permeability assay)
- Type: in vitro ADME
- CONDITION LABEL: PAMPA, pH 6.5
Starred links: 1 amine or outer side, 2 acyl side, 3 side chain; linkers in the order of their positions; H or OH if unused. Positions of bridges follow the written chain, without caps; N, C: chain ends. Non-standard residues stand in square brackets, D forms with d. Residues, ends and D or L forms follow the SMILES beside them. *: point of attachment. Phe(3-(CH2)4CO) = O=C([C@H](Cc1cccc(CCCCC(=O)[*:3])c1)N[*:1])[*:2]; NMeF = CN[C@@H](Cc1ccccc1)C(=O)O; NMeI = CC[C@H](C)[C@H](NC)C(=O)O; NMeβAla = CN(CCC(=O)[*:2])[*:1]; NMeL = CN[C@@H](CC(C)C)C(=O)O; NMeV = CN[C@H](C(=O)O)C(C)C; NMeA = CN[C@@H](C)C(=O)O; Piperidide = C1CCN(*)CC1; β3hA = C[C@H](N)CC(=O)O; Sar = CNCC(=O)O; tBu = CC(C)(C)*
QUANTITY NAME: Papp at 18 hours, 50 µM (×10⁻⁶ cm/s)
Just the number please, in ×10⁻⁶ cm/s, no unit attached.

COMPOUND	READING UNIT	Papp at 18 hours, 50 µM
CC(C)C[C@H]1C(=O)N[C@H](C(=O)N2CCCCC2)Cc2cccc(c2)CCCCC(=O)N(C)[C@@H](Cc2ccccc2)C(=O)NCC(=O)N(C)[C@@H](Cc2ccccc2)C(=O)N(C)[C@@H](CC(C)C)C(=O)N(C)[C@@H](CC(C)C)C(=O)N1C [DP-844] ([NMeF]G[NMeF][NMeL][NMeL][NMeL][Phe(3-(CH2)4CO)]-Piperidide; lactam N-7)	×10⁻⁶ cm/s	11
CC(C)C[C@H]1C(=O)N(C)[C@@H](Cc2ccccc2)C(=O)NCC(=O)N[C@H](C(=O)N2CCCCC2)CC(=O)N(C)CCC(=O)N[C@@H]([C@@H](C)O)C(=O)N(C)[C@@H](C)C(=O)N[C@@H](COC(C)(C)C)C(=O)N(C)[C@@H](Cc2ccccc2)C(=O)N1C [DP-80] ([NMeβAla]T[NMeA]S(tBu)[NMeF][NMeL][NMeF]GD-Piperidide; lactam N-9)	×10⁻⁶ cm/s	12

Turning to the following compound.
Q: Return value of Papp at 18 hours, 50 µM for input CC[C@H](C)[C@H]1C(=O)N[C@@H](COC(C)(C)C)C(=O)N(C)[C@@H](Cc2ccccc2)C(=O)N(C)[C@@H](C(C)C)C(=O)N[C@@H](C)CC(=O)N(C)[C@@H](C)C(=O)N(C)[C@@H](Cc2ccccc2)C(=O)N[C@@H](CC(C)C)C(=O)N(C)[C@@H](CC(C)C)C(=O)N[C@@H]([C@@H](C)O)C(=O)N(C)CC(=O)N1C [DP-771] (cyclo(L[NMeL]T[Sar][NMeI]S(tBu)[NMeF][NMeV][β3hA][NMeA][NMeF])) , no commentary.
Result: 47
